Attribution: patent US12263172B2

# EXPERIMENT NOTES: Phase 1 single oral dose pharmacokinetics in healthy adults
# Type: in vivo
# CONDITION PARAMETERS: both sexes, human, plasma, oral, 0.6 mg, single dose 0.6 mg fasted, mean ± SD; read-out: AUC24 h
# Source text: This ongoing trial is a Phase 1 randomized, double-blind, placebo-controlled study in male and female healthy adult volunteers aged 18-55 years. All volunteers provided written, informed consent. […]

| RECORD SMILES | AUC(0-t), ng·h/mL |
| --- | --- |
| CCCCOc1nc(N)c2[nH]cc(Cc3ccc(CN4CCCC4)cc3)c2n1 | 0.594 |

----------
# EXPERIMENT NOTES: Phase 1 multiple dose pharmacokinetics in healthy adults
# Type: in vivo, human
# CONDITION PARAMETERS: human, plasma, oral, 1.25 mg, 1.25 mg qw fasted; SD 67.2; read-out: mean Cmax after the fourth dose
# Description: Following a single dose of Compound 4, intensive blood samples were collected over the first 24 hours, samples were then collected daily through Day 7, and weekly samples were collected through Day 35. Plasma concentrations of Compound 4 were evaluated using a validated liquid chromatography with tandem mass spectrometry method; the lower limit of quantification was 1 pg/mL. PK parameters were estimated using non-compartmental analysis (WinNonlin®, Certara, Princeton, NJ, USA). […]
READOUT: Cmax (ng/mL)

| COMPOUND | TEST RESULT |
| --- | --- |
| CCCCOc1nc(N)c2[nH]cc(Cc3ccc(CN4CCCC4)cc3)c2n1 [Compound 4] | 0.235 |

----------
# EXPERIMENT NOTES: Phase 1 single oral dose pharmacokinetics in healthy adults
# Format: in vivo
# CONDITION PARAMETERS: both sexes, human, plasma, oral, 1.8 mg, single dose 1.8 mg fasted, mean ± SD

| MOLECULE | Cmax, ng/mL |
| --- | --- |
| CCCCOc1nc(N)c2[nH]cc(Cc3ccc(CN4CCCC4)cc3)c2n1 [Compound 4] | 0.309 |
